- experimentalSystem: Cholinesterase (Equus caballus)
- testMethodNotes: Inhibition of horse serum BChE at 10 uM using butyrylthiocholine chloride substrate by spectrophotometry based Ellman's assay
measureName: inhibition

structureNotation: CC[n+]1ccc2cc(-c3ccc4ccccc4c3)nc(O)c2c1
result: 59.5%
--
structureNotation: C[n+]1ccc2cc(-c3ccccc3)[nH]c(=O)c2c1
result: 51.6%
--
structureNotation: CC[n+]1ccc2c3c(nc(O)c2c1)-c1ccccc1C3
result: 77.3%
--
structureNotation: Oc1nc(-c2ccccc2)cc2cc[n+](Cc3ccccc3)cc12
result: 76.4%
--
structureNotation: Oc1nc(-c2ccc3ccccc3c2)cc2cc[n+](Cc3ccccc3)cc12
result: 97.1%
--
structureNotation: CC[n+]1ccc2cc(-c3ccccc3)nc(O)c2c1
result: 45.9%
--
structureNotation: CC[n+]1ccc2cc(-c3ccccn3)nc(O)c2c1
result: 48.5%
